# TEST METHOD NOTES: in vitro
# COND: mouse, plasma
Binary classification by fraction unbound at 5 h, with 0.03 as an inclusive lower bound for condition met; all other cases are condition not met.

{"COMPOUND": "N[C@@H](CC(=O)N1CCn2c(nnc2C(F)(F)F)C1)Cc1cc(F)c(F)cc1F", "ANSWER LABEL": "condition met"}
{"COMPOUND": "NC(=O)c1ccc(-n2nnnc2Oc2ccc(Br)cc2)cc1", "ANSWER LABEL": "condition met"}
{"COMPOUND": "NC1=NC(c2ccnc(C(F)(F)F)c2)(c2ccc(F)c(-c3cncnc3)c2)c2cccc(F)c21 (stereo not given)", "ANSWER LABEL": "condition met"}
{"COMPOUND": "c1ccc2c(c1)CC(N1CCN(c3cccc4c3OCCO4)CC1)C2", "ANSWER LABEL": "condition met"}
{"COMPOUND": "COc1cc(-n2nnc3cc(-c4ccc(Cl)cc4)sc3c2=O)ccc1N1CC[C@@H](O)C1", "ANSWER LABEL": "condition not met"}
{"COMPOUND": "C[C@H](Nc1ncc(F)c(Nc2cc(C3CC3)[nH]n2)n1)c1ccc(F)cn1", "ANSWER LABEL": "condition met"}
{"COMPOUND": "O=c1c2cc(-c3ccc(Cl)cc3)oc2ccn1-c1ccc2c(cnn2CCN2CCCC2)c1", "ANSWER LABEL": "condition not met"}
{"COMPOUND": "CCCCCCC(=O)CCCCCC/C=C/C[C@@H](O)[C@H](O)[C@@](N)(CO)C(=O)O", "ANSWER LABEL": "condition met"}
{"COMPOUND": "CCCn1c(=O)c2[nH]c(-c3cnn(Cc4cccc(C(F)(F)F)c4)c3)nc2n(CC)c1=O", "ANSWER LABEL": "condition not met"}
{"COMPOUND": "c1ccc([C@H]([C@@H](c2ccccc2)N2CCCC2)N2CCCC2)cc1", "ANSWER LABEL": "condition met"}
{"COMPOUND": "Nc1scc2c(C(=O)NC3CC3)nn(-c3ccc(Cl)cc3)c(=O)c12", "ANSWER LABEL": "condition met"}
{"COMPOUND": "Cn1cc(-c2ccncc2)c(-c2ccc(OCc3ccc4ccccc4n3)cc2)n1", "ANSWER LABEL": "condition not met"}
{"COMPOUND": "N#Cc1c(-c2ccc(-c3ccccc3Cl)cc2)nc2ccncc2c1O", "ANSWER LABEL": "condition not met"}
{"COMPOUND": "O=C(Nc1ccc(Cl)c(C(=O)Nc2cccnc2)c1)c1cccc(C(F)(F)F)c1", "ANSWER LABEL": "condition not met"}
{"COMPOUND": "CCc1c(C(=O)C(N)=O)c2c(OCC(=O)O)cccc2n1Cc1ccccc1", "ANSWER LABEL": "condition met"}
{"COMPOUND": "c1ccc2nc(COc3ccc(-c4n[nH]cc4-c4ccncc4)cc3)ccc2c1", "ANSWER LABEL": "condition not met"}
{"COMPOUND": "O=C(CN1CCN(Cc2ccn(-c3ccc(C(F)(F)F)cn3)c2)CC1)NC(c1ccc(F)cc1)c1ccc(F)cc1", "ANSWER LABEL": "condition not met"}
{"COMPOUND": "c1cncc(Nc2ncc(-c3ccncn3)c(-c3ccco3)n2)c1", "ANSWER LABEL": "condition met"}
{"COMPOUND": "c1ccc2[nH]c(CCc3nc4ccccc4[nH]3)nc2c1", "ANSWER LABEL": "condition met"}
{"COMPOUND": "CC(O)(C(=O)Nc1ccc(S(=O)(=O)N2CCCC2)cc1)C(F)(F)F (stereo not given)", "ANSWER LABEL": "condition met"}

###

# TEST METHOD NOTES: in vitro
# COND: human, plasma, PPB

{"MOLECULE": "O=C(Cc1ccc(Cl)c(C(F)(F)F)c1)Nc1cccc2c(=O)n(CCO)ccc12", "fraction unbound at 5 h": 0.0097}
{"MOLECULE": "NC1=Nc2ccccc2Sc2cccc(F)c21", "fraction unbound at 5 h": 0.0568}
{"MOLECULE": "Cc1c[nH]c(-c2cnc(NCCNc3ccc(C#N)cn3)nc2-c2ccc(Cl)cc2Cl)n1", "fraction unbound at 5 h": 0.0187}
{"MOLECULE": "N#CC[C@H](C1CCCC1)n1cc(-c2ncnc3[nH]ccc23)cn1", "fraction unbound at 5 h": 0.0532}
{"MOLECULE": "COc1ccccc1C(C#N)NC(=O)[C@@H]1CCCC[C@H]1C(=O)N1CCN(Cc2ccc(F)cc2)CC1 (some centres undefined)", "fraction unbound at 5 h": 0.051}
{"MOLECULE": "Cc1cnc(Nc2cncc(N[C@@H](C)c3ncc(F)cn3)n2)s1", "fraction unbound at 5 h": 0.173}
{"MOLECULE": "CCOc1cc(CN2CCC(NC(=O)c3cncc(C)c3)CC2)cc(OCC)c1-c1ccc(F)cc1", "fraction unbound at 5 h": 0.0149}
{"MOLECULE": "CC(C)C[C@H](CO)Nc1nc(S[C@@H](C)c2ccccc2)nc2[nH]c(=O)sc12", "fraction unbound at 5 h": 0.001}
{"MOLECULE": "Cc1cn([C@H]2CCCN(S(=O)(=O)c3ccc(O)c(Oc4cc(F)cc(Cl)c4)c3)C2)c(=O)[nH]c1=O", "fraction unbound at 5 h": 0.0119}

###

# TEST METHOD NOTES: physchem
# COND: octan-1-ol/water, pH 7.4, LogD7.4
Non-standard residues stand in square brackets, D forms with d. Residues, ends and D or L forms follow the SMILES beside them. Dip = N[C@H](C(=O)O)C(c1ccccc1)c1ccccc1; Chg = N[C@H](C(=O)O)C1CCCCC1; NMeA = CN[C@@H](C)C(=O)O
Use Condition met when the recorded logD is no lower than 3; use Condition not met when it is lower.

{"COMPOUND": "CS(=O)(=O)c1ccccc1C(=O)NCC(O)CNC1CCN(Cc2ccc(Cl)c(Cl)c2)CC1 (centres undefined)", "ANSWER LABEL": "Condition not met"}
{"COMPOUND": "COc1ccc(-c2coc3cc(O)cc(O)c3c2=O)cc1OC", "ANSWER LABEL": "Condition not met"}
{"COMPOUND": "CCCS(=O)(=O)c1ccc(Nc2nccc(-c3cnc(C)n3C(C)C)n2)cc1", "ANSWER LABEL": "Condition met"}
{"COMPOUND": "CN[C@@H](C)C(=O)N[C@H](C(=O)N1CCC[C@H]1C(=O)N[C@H](C(=O)OC)C(c1ccccc1)c1ccccc1)C1CCCCC1 (H-[NMeA][Chg]P[Dip]-OMe)", "ANSWER LABEL": "Condition not met"}
{"COMPOUND": "CCS(=O)(=O)c1ccc(Oc2c(C)n(CC(=O)O)c3ccc(C(F)(F)F)cc23)cc1", "ANSWER LABEL": "Condition not met"}
{"COMPOUND": "CCCSc1nc(N2CCOCC2)ccc1C(=O)N[C@H]1C2CC3CC1C[C@](O)(C3)C2", "ANSWER LABEL": "Condition met"}
{"COMPOUND": "Cc1ccc(S(=O)(=O)Nc2c(C(=O)NC3CCCCC3C)c(C)nn2-c2ccccc2)cc1 (centres undefined)", "ANSWER LABEL": "Condition not met"}
{"COMPOUND": "O=C(CCCN1CCC(O)(c2ccc(Cl)cc2)CC1)c1ccc(F)cc1", "ANSWER LABEL": "Condition not met"}
{"COMPOUND": "Cc1ccc(S(=O)(=O)N2N=Cc3oc(C)cc3B2O)cc1", "ANSWER LABEL": "Condition not met"}

###

# TEST METHOD NOTES: physchem
# COND: octan-1-ol/water, pH 7.4, LogD7.4
Consider the following molecules and their measured logD readings.
MEASURED ENDPOINT: logD

{"MOLECULE": "CN(C)CCCNS(=O)(=O)c1ccc(Nc2nccc(-c3cnc4ccccn34)n2)cc1", "ENDPOINT VALUE": 1.9}
{"MOLECULE": "Cc1cnc(Nc2ccc(N3CCN(C)CC3)cc2)nc1Nc1cccc(S(=O)(=O)NC(C)(C)C)c1", "ENDPOINT VALUE": 2.84}
{"MOLECULE": "O=C1C(=O)c2cccnc2-c2ccccc21", "ENDPOINT VALUE": 1.88}
{"MOLECULE": "CCN(C(=O)Cc1ccc(C#N)cc1)C1CCN(CCC(c2ccccc2)c2ccccc2)CC1", "ENDPOINT VALUE": 3.9}
{"MOLECULE": "CC(C)C(NC(=O)Cn1c(-c2ccccc2)ncc(NC(=O)OCc2ccccc2)c1=O)C(=O)C(F)(F)F (stereo not drawn)", "ENDPOINT VALUE": 2.12}
{"MOLECULE": "c1ccc(Nc2ccccc2)cc1 [DIPHENYLAMINE]", "ENDPOINT VALUE": 3.2}
{"MOLECULE": "CC(=O)Nc1ccc(S(=O)(=O)Nc2ccccn2)cc1", "ENDPOINT VALUE": 0.24}
{"MOLECULE": "COc1ccc(NC(=O)CCc2c(C)nc3nc(C)nn3c2C)cc1", "ENDPOINT VALUE": 1.4}
{"MOLECULE": "COc1cc2ncnc(Nc3cc4ccccc4cn3)c2cc1OC", "ENDPOINT VALUE": 3.9}
{"MOLECULE": "Cc1ccc(S(=O)(=O)Nc2c(C(=O)N[C@@H](C)C(C)(C)C)c(C)nn2C2CCCC2)cc1", "ENDPOINT VALUE": 2}
{"MOLECULE": "C[C@@H]1CN(C(=O)OC(C)(C)C)CCN1c1ncc(OCc2ccc(C#N)cc2)cn1", "ENDPOINT VALUE": 2.89}
{"MOLECULE": "N#Cc1ccc2ccc(=O)n(CCN3CC[C@@H](NCc4ccc5c(n4)NC(=O)CO5)[C@@H](F)C3)c2c1", "ENDPOINT VALUE": 0.66}
{"MOLECULE": "Cc1cc(-c2ccc(Cl)c(C(=O)NCC3(O)CCCCCC3)c2)nn1C[C@H](O)CN", "ENDPOINT VALUE": 0.57}
{"MOLECULE": "COc1cc2ncc(C(N)=O)c(Nc3ccccc3C)c2cc1OC", "ENDPOINT VALUE": 3.4}
{"MOLECULE": "COc1ccc(-c2nc3c(NCCCNC(=O)C4(CN)CC4)c(Br)cnc3[nH]2)cc1", "ENDPOINT VALUE": 1.9}
{"MOLECULE": "CCCCC(O)c1[nH]c2cc(C)c(C(=O)O)cc2c1CCc1ccccc1 (stereo not drawn)", "ENDPOINT VALUE": 2.59}
{"MOLECULE": "C[C@@H](NC1=CC(=O)CNC1)c1ccc(Nc2ncc3cc(-c4ccncc4)ccc3n2)cc1", "ENDPOINT VALUE": 2.49}
{"MOLECULE": "CCN(CCCOCCOCCc1ccccc1)CCc1ccc(O)c2nc(O)sc12", "ENDPOINT VALUE": 2.45}
{"MOLECULE": "NCc1nc2ccccc2[nH]1", "ENDPOINT VALUE": 0.4}
{"MOLECULE": "COc1ccc(OC)c(-c2c(F)ccc3c(N)c(C(=O)NC(C)C)nnc23)c1", "ENDPOINT VALUE": 3.77}
{"MOLECULE": "CCn1c2ccccc2c2cc(NC(=O)CN(C)C)ccc21", "ENDPOINT VALUE": 3.2}
{"MOLECULE": "COc1ccnc(NC2CCN(C(=O)c3ccccc3)CC2)c1", "ENDPOINT VALUE": 2.06}
{"MOLECULE": "COc1cccc(C(=O)NCCCOc2cccc3ccc(N)nc23)c1", "ENDPOINT VALUE": 2.46}
{"MOLECULE": "O=CN(O)C1(CS(=O)(=O)N2CCN(c3ccc(F)cc3)CC2)CCOCC1", "ENDPOINT VALUE": 0.85}
{"MOLECULE": "Clc1ccc(C2=CSC3=NCCN23)cc1Cl", "ENDPOINT VALUE": 1.54}
{"MOLECULE": "CN(C)c1ccnc2sc3c(=O)n(-c4ccccc4)cnc3c12", "ENDPOINT VALUE": 2.34}
{"MOLECULE": "FC(F)(F)c1cc(COCC(c2ccccc2)N2CCNCC2)cc(C(F)(F)F)c1 (stereo not drawn)", "ENDPOINT VALUE": 2.9}
{"MOLECULE": "CCCSc1ncccc1C(=O)N1CCCC1c1ccncc1 (stereo not drawn)", "ENDPOINT VALUE": 1.95}
{"MOLECULE": "C[C@H](CO)Nc1nc(SCc2cccc(F)c2F)nc2nccnc12", "ENDPOINT VALUE": 3.15}
{"MOLECULE": "COc1ccc(C)c(N(C)c2ccnc(Nc3cc(N4CCOCC4)cc(N4CCOCC4)c3)n2)c1", "ENDPOINT VALUE": 3.18}
{"MOLECULE": "COc1cc(O)c(C(CC(=O)N2CC(C)CC(C)C2)c2ccc3c(c2)OCO3)c(OC)c1 (stereo not drawn)", "ENDPOINT VALUE": 4.3}
{"MOLECULE": "Cc1cc([C@H](O)[C@](C)(OCc2ccc(-c3ccccc3)cc2)C(=O)NO)no1", "ENDPOINT VALUE": 2.88}
{"MOLECULE": "Cn1ncnc1-c1c2c(=O)n(C)c(=O)n(CC3CC3)c2nn1Cc1ccnc2ccc(Cl)cc12", "ENDPOINT VALUE": 3.8}
{"MOLECULE": "CN1CCC[C@@H]1CCO[C@](C)(c1ccccc1)c1ccc(Cl)cc1 [CLEMASTINE]", "ENDPOINT VALUE": 3.04}
{"MOLECULE": "Cc1ccccc1C(OCCN(C)C)c1ccccc1 (stereo not drawn) [ORPHENADRINE]", "ENDPOINT VALUE": 1.47}
{"MOLECULE": "CN1CCOc2nc(C#Cc3ccccc3)ccc21", "ENDPOINT VALUE": 3.8}
{"MOLECULE": "CC(C)c1ccccc1Nc1nnc(SCc2cccs2)[nH]1", "ENDPOINT VALUE": 4.21}
{"MOLECULE": "CN[C@H]1CCN(C(=O)c2ccc(Nc3nccc(-c4cnc(C)n4C(C)C)n3)cc2)C1", "ENDPOINT VALUE": 1.22}
{"MOLECULE": "COc1cc2c(Nc3ccc(F)c(Cl)c3)c(C(N)=O)cnc2cc1OCCN(C)CCO", "ENDPOINT VALUE": 3.2}
{"MOLECULE": "Nc1ncnc2c1ncn2[C@@H]1O[C@H](CSCCCNC(=O)Nc2ccc(Cl)cc2)[C@@H](O)[C@H]1O", "ENDPOINT VALUE": 2.5}
{"MOLECULE": "NS(=O)(=O)c1nc2ccccc2s1", "ENDPOINT VALUE": 1.35}
{"MOLECULE": "c1ccc2c(c1)nnn2-c1ccncc1", "ENDPOINT VALUE": 1.69}
{"MOLECULE": "COCC(C)n1nc(C)c(C(=O)N[C@@H](C)C(C)(C)C)c1NS(=O)(=O)c1ccc(C)cc1 (stereo partly drawn)", "ENDPOINT VALUE": 0.61}
